Tested On: human emopamil binding protein and human 7-dehydrocholesterol reductase (hEBP-DHCR7) (Homo sapiens, UniProt Q15125)
Sequence (Q15125 whole entry): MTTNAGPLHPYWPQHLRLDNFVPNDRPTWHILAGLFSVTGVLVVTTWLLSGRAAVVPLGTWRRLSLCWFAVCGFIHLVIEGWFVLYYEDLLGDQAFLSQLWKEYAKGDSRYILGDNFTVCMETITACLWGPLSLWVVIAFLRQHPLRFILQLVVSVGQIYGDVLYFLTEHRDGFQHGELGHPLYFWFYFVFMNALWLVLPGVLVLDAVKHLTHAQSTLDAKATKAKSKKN
Exercise: for every item that follows, state its recorded Ki.
Numbers only, in nM.

The following molecules have reported results that may help.
> print(dat)
                                   molecule   u  recorded.value
1  CC(C)n1nc(-c2cncc(C(F)(F)F)c2)cc1[C@H]1[C@@H]2C[C@H](N3CC[C@@]4(CCS(=O)(=O)C4)C3)C[C@@H]21 (single isomer, unassigned)  nM            20.1
2  CCn1nc(-c2cncc(C(F)(F)F)c2)cc1[C@H]1[C@@H]2C[C@@H](N3CCC4(C3)CS(=O)(=O)C4)C[C@@H]21 (single isomer, unassigned)  nM            19.9

Kindly review the next molecule as well.
Short answer for CC(C)n1nc(-c2cncc(C(F)(F)F)c2)cc1[C@H]1[C@@H]2C[C@@H](N3CC[C@]4(CCS(=O)(=O)C4)C3)C[C@@H]21 (single isomer, unassigned) : Ki was 18.1
